tested_on: GPR119 (Homo sapiens)
Construct: host or cells: CHO-K1 (GPR119 CRE-bla, doxycycline-induced)
assay_text: cAMP Accumulation Assay (GPR119 CRE-bla CHO-K1 cells, LiveBLAzer-FRET B/G)
Type: cell-based
measurement_parameters: (Emax of the test compound/Emax of MBX-2982)x100, 5 hours incubation
Provide the recorded Emax (% RR) for the entries that follow.
Write down the numeric answer in % RR and omit the unit.

Notebook: `CCCn1ncn(-c2ccc(-c3cnc(N4CCC(c5nc(C(C)C)no5)CC4)c(C#N)c3)cc2F)c1=O` , Emax (% RR) read as 122.7

Notebook: `CCc1cnc(N2CCN(c3ncc(-c4ccc(-n5cnn(CCNC(=O)OC(C)(C)C)c5=O)c(F)c4)cc3C#N)[C@@H](C)C2)nc1` , Emax (% RR) read as 116.8

Notebook: `CCc1cnc(N2CCN(c3ncc(-c4ccc(-n5cnn(CCN(C(=O)OC(C)(C)C)C(C)C)c5=O)c(F)c4)cc3C#N)[C@@H](C)C2)nc1` , Emax (% RR) read as 113.0

Notebook: `CCc1cnc(N2CCN(c3ncc(-c4ccc(-n5cnn(CN6CCCC6)c5=O)c(F)c4)cc3C#N)[C@@H](C)C2)nc1` , Emax (% RR) read as 145.6

Notebook: `CCc1cnc(N2CCN(c3ncc(-c4ccc(-n5cnn(C)c5=O)cc4)cc3C#N)CC2)nc1` , Emax (% RR) read as 133.6

Notebook: `CC(C)n1ncn(-c2ccc(-c3cnc(N4CCN(C(=O)OC(C)(C)C)C[C@@H]4C)nc3)cc2F)c1=O` , Emax (% RR) read as 113.4

Notebook: `CCc1cnc(N2CCN(c3ncc(-c4ccc(-n5cnn(CCOC)c5=O)cc4)cc3C#N)CC2)nc1` , Emax (% RR) read as 112.1

====

tested_on: GPR119 (Homo sapiens, UniProt Q8TDV5)
Construct: host or cells: CHO-K1 (GPR119 CRE-bla, doxycycline-induced)
Sequence (Q8TDV5 whole entry): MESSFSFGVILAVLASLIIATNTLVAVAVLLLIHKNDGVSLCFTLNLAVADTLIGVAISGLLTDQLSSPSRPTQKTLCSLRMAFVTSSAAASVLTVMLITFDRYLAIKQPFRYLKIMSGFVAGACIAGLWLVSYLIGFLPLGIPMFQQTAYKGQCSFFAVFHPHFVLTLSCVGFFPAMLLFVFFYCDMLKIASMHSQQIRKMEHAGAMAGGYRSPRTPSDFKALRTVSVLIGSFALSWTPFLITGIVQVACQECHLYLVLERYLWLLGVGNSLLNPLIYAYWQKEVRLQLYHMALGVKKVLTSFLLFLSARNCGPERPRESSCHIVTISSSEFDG
assay_text: cAMP Accumulation Assay (GPR119 CRE-bla CHO-K1 cells, LiveBLAzer-FRET B/G)
Type: cell-based
measurement_parameters: 5 hours incubation
Provide the recorded EC50 for the entries that follow.
Write down the numeric answer in nM and omit the unit.

Given the molecule `COCCn1ncn(-c2ccc(-c3cnc(N4CCC(c5noc(C(C)C)n5)CC4)c(C#N)c3)cc2)c1=O` and test system GPR119 (Homo sapiens, UniProt Q8TDV5), the measured EC50 is 16

Given the molecule `CC(C)c1nc(C2CCN(c3ncc(-c4ccc(-n5cnn([C@@H]6CCOC6)c5=O)cc4)cc3C#N)CC2)no1` and test system GPR119 (Homo sapiens, UniProt Q8TDV5), the measured EC50 is 36

Given the molecule `CCc1cnc(N2CCN(c3ncc(-c4ccc(-n5cnn(CC#N)c5=O)c(F)c4)cc3C#N)[C@@H](C)C2)nc1` and test system GPR119 (Homo sapiens, UniProt Q8TDV5), the measured EC50 is 17

Given the molecule `CCc1cnc(N2CCN(c3ncc(-c4ccc(-n5cnn(CC(C)(C)O)c5=O)c(F)c4)cc3C#N)[C@@H](C)C2)nc1` and test system GPR119 (Homo sapiens, UniProt Q8TDV5), the measured EC50 is 5

Given the molecule `CCc1cnc(N2CCN(c3ncc(-c4ccc(-n5cn[nH]c5=O)c(F)c4)cc3C#N)[C@@H](C)C2)nc1` and test system GPR119 (Homo sapiens, UniProt Q8TDV5), the measured EC50 is 2

Given the molecule `CC(C)c1noc(C2CCN(c3ncc(-c4ccc(-n5cnn(CN6CCCC6)c5=O)c(F)c4)cc3C#N)CC2)n1` and test system GPR119 (Homo sapiens, UniProt Q8TDV5), the measured EC50 is 2.6

Given the molecule `CC(C)n1ncn(-c2ccc(-c3cnc(N4CCC(c5nnc(C(F)(F)F)o5)CC4)c(C#N)c3)cc2)c1=O` and test system GPR119 (Homo sapiens, UniProt Q8TDV5), the measured EC50 is 8.2

Given the molecule `CC(C)n1ncn(-c2ccc(-c3cnc(N4CCC(c5nnc(C(F)(F)F)o5)CC4)c(C#N)c3)cc2F)c1=O` and test system GPR119 (Homo sapiens, UniProt Q8TDV5), the measured EC50 is 5.6

Given the molecule `CCc1cnc(N2CCN(c3ncc(-c4ccc(-n5cnn(C)c5=O)cc4)cc3C#N)CC2)nc1` and test system GPR119 (Homo sapiens, UniProt Q8TDV5), the measured EC50 is 3.8

Given the molecule `CCCn1ncn(-c2ccc(-c3cnc(N4CCN(C(=O)OC(C)(C)C)C[C@@H]4C)c(C#N)c3)cc2F)c1=O` and test system GPR119 (Homo sapiens, UniProt Q8TDV5), the measured EC50 is 4

Given the molecule `CC(C)c1nc(C2CCN(c3ncc(-c4ccc(-n5cnn([C@H]6CCOC6)c5=O)cc4)cc3C#N)CC2)no1` and test system GPR119 (Homo sapiens, UniProt Q8TDV5), the measured EC50 is 9.8

Given the molecule `CCc1cnc(N2CCN(c3ncc(-c4ccc(-n5cnn(C)c5=O)c(F)c4)cc3C#N)[C@@H](C)C2)nc1` and test system GPR119 (Homo sapiens, UniProt Q8TDV5), the measured EC50 is 3

Given the molecule `COCn1ncn(-c2ccc(-c3cnc(N4CCN(c5noc(C(C)C)n5)CC4)c(C#N)c3)cc2)c1=O` and test system GPR119 (Homo sapiens, UniProt Q8TDV5), the measured EC50 is 16

Given the molecule `CC(C)c1nc(C2CCN(c3ncc(-c4ccc(-n5cnn(CN6CCCC6)c5=O)c(F)c4)cc3C#N)CC2)no1` and test system GPR119 (Homo sapiens, UniProt Q8TDV5), the measured EC50 is 2.6

Given the molecule `CCc1cnc(N2CCN(c3ncc(-c4ccc(-n5cnn(CN6CCN(C)CC6)c5=O)c(F)c4)cc3C#N)[C@@H](C)C2)nc1` and test system GPR119 (Homo sapiens, UniProt Q8TDV5), the measured EC50 is 3.1

Given the molecule `CCc1cnc(N2CCN(c3ncc(-c4ccc(-n5cnn(CCNC(=O)OC(C)(C)C)c5=O)c(F)c4)cc3C#N)[C@@H](C)C2)nc1` and test system GPR119 (Homo sapiens, UniProt Q8TDV5), the measured EC50 is 7.2

Given the molecule `CCc1cnc(N2CCN(c3ncc(-c4ccc(-n5cnn(C(C)C)c5=O)c(F)c4)cc3C#N)CC2)nc1` and test system GPR119 (Homo sapiens, UniProt Q8TDV5), the measured EC50 is 1.5

Given the molecule `CCc1cnc(N2CCN(c3ncc(-c4ccc(-n5cnn(CCN(C(=O)OC(C)(C)C)C(C)C)c5=O)c(F)c4)cc3C#N)[C@@H](C)C2)nc1` and test system GPR119 (Homo sapiens, UniProt Q8TDV5), the measured EC50 is 5.4

Given the molecule `CCc1cnc(N2CCN(c3ncc(-c4ccc(-n5cnn(CCOC)c5=O)c(F)c4)cc3C#N)CC2)nc1` and test system GPR119 (Homo sapiens, UniProt Q8TDV5), the measured EC50 is 10

Given the molecule `CCc1cnc(N2CCN(c3ncc(-c4ccc(-n5cnn(COC)c5=O)c(F)c4)cc3C#N)[C@@H](C)C2)nc1` and test system GPR119 (Homo sapiens, UniProt Q8TDV5), the measured EC50 is 10.2

Given the molecule `CCc1cnc(N2CCN(c3ncc(-c4ccc(-n5cnn(CC(C)(C)C#N)c5=O)c(F)c4)cc3C#N)[C@@H](C)C2)nc1` and test system GPR119 (Homo sapiens, UniProt Q8TDV5), the measured EC50 is 2.6

Given the molecule CCc1cnc(N2CCN(c3ncc(-c4ccc(-n5cnn(CCN)c5=O)c(F)c4)cc3C#N)[C@@H](C)C2)nc1.Cl [Example 17, hydrochloride] and test system GPR119 (Homo sapiens, UniProt Q8TDV5), the measured EC50 is 8.2

Given the molecule `CCc1cnc(N2CCN(c3ncc(-c4ccc(-n5cnn([C@@H]6CCOC6)c5=O)c(F)c4)cc3C#N)CC2)nc1` and test system GPR119 (Homo sapiens, UniProt Q8TDV5), the measured EC50 is 4.4

Given the molecule `CCc1cnc(N2CCN(c3ncc(-c4ccc(-n5cnn(CC(C)C)c5=O)c(F)c4)cc3C#N)[C@@H](C)C2)nc1` and test system GPR119 (Homo sapiens, UniProt Q8TDV5), the measured EC50 is 1

Given the molecule `CCc1cnc(N2CCN(c3ncc(-c4ccc(-n5cnn(CCNS(C)(=O)=O)c5=O)c(F)c4)cc3C#N)[C@@H](C)C2)nc1` and test system GPR119 (Homo sapiens, UniProt Q8TDV5), the measured EC50 is 7.9

Given the molecule `C[C@H]1CN(c2ccc(C(F)(F)F)cn2)CCN1c1ncc(-c2ccc(-n3cnn(C)c3=O)c(F)c2)cn1` and test system GPR119 (Homo sapiens, UniProt Q8TDV5), the measured EC50 is 5

Given the molecule `COCCn1ncn(-c2ccc(-c3cnc(N4CCN(C(=O)OC(C)(C)C)C[C@@H]4C)nc3)cc2F)c1=O` and test system GPR119 (Homo sapiens, UniProt Q8TDV5), the measured EC50 is 54.9
